tested on: Scedosporium aurantiacum CBS 136046; test: growth inhibition relative to DMSO control (OD600); higher = more antifungal activity, active = 80 or more; extreme values may be limits of the assay; conditions: 5 µM; 72 h; 37 °C;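 note: conidia screened in RPMI 1640 medium under 5% CO2, growth read by spectrophotometer, medium with 0.5% DMSO serving as the untreated reference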
Quantity Name: growth inhibition (%)
Expressed in %, but write only the number.

Prompt: Under Scedosporium aurantiacum CBS 136046: growth inhibition value of `CCOC(=O)N[C@@H]1CC[C@@H]2[C@@H](C1)C[C@H]1C(=O)O[C@H](C)[C@H]1[C@H]2/C=C/c1ccc(-c2cccc(F)c2)cn1` ?
Completion: 44.3

Prompt: Let us now turn to `Fc1ccc(-n2cc(Cn3c(-c4cccc(F)c4)nc4ccccc43)nn2)cc1`
Completion: 17.9

Prompt: Let us now turn to `Nc1nc(Nc2ccc3nc(-c4ccc(F)cc4)cc(N)c3c2)cc(-c2ccccc2)n1`
Completion: 17.1

Prompt: Let us now turn to `O=C(Cn1cnc2ccccc2c1=O)Nc1ccccc1`
Completion: 1.51

Prompt: Let us now turn to `Cn1cncc1[C@@](N)(c1ccc(Cl)cc1)c1ccc2c(c1)c(-c1cccc(Cl)c1)cc(=O)n2C`
Completion: 11.3

Prompt: Let us now turn to `O=C(Nc1ccc(Cl)c(C(F)(F)F)c1)C(CCCl)C(=O)Nc1ccc(Cl)c(C(F)(F)F)c1`
Completion: 0
